Below: a set of entries, each annotated with reported activity at 20 µM.
test system: HIV-1; test: NCI in vitro anti-HIV drug screen: XTT-formazan assay, protection of T4 lymphocytes (CEM) from HIV-1 cytopathic effects; format: cell-based, human immunodeficiency virus (HIV-1); conditions: Human immunodeficiency virus 1, Lymphocyte, dose 2.00 × 10^-5 Molar; read-out: Percent of Control, Infected
Report the value in % with no unit label.

Below, 3 compounds whose answers are already recorded.
| mol | quantity | reported |
| --- | --- | --- |
| CCNc1ccccc1S(=O)(=O)c1ccccc1[N+](=O)[O-] | activity at 20 µM | 68.5 |
| CNc1c(Cl)cccc1S(=O)(=O)c1ccccc1[N+](=O)[O-] | activity at 20 µM | 89.8 |
| O=S(=O)(c1ccccc1)c1cccc2c1NCCC2 | activity at 20 µM | 67.7 |

Kindly consider the entry below.
IN: Quick one: activity at 20 µM for O=[N+]([O-])c1ccccc1S(=O)(=O)c1cc(Cl)cc2c1NCCC2 ?
OUT: 86.2
